system: PA-1; test: Primary qHTS to identify gynecologic anti-cancer compounds using libraries of approved drugs and bioactive compounds (AID 1345084); settings: Gynecologic cancer cell panel viability, ATPlite luminescence, 48 h; series mostly up to 57.5 µM; note: nearly all actives have a fitted effect of over 55% in size
Records with an inconclusive call do not appear. Activity calls are given as the source filed them. Calls come from the whole dose curve; as a rule, active = well fitted cell-killing curve with a large enough effect; inconclusive = small, poorly fitted or top-dose-only effect, or effect the other way; inactive = flat fitted curve, though single readings scatter.
Hi! Could you answer with just one of these? true for active, false for inactive

stdin: Any idea what this test logged for COc1ccc(CNCc2cccc3ccccc23)cc1 ?
stdout: false

stdin: Any idea what this test logged for Cc1cc2c(F)c(Oc3ncnn4cc(OCC(C)OC(=O)C(C)N)c(C)c34)ccc2[nH]1 (stereo not given) ?
stdout: false

stdin: Any idea what this test logged for CC(=O)OC1C(OC(=O)c2ccccc2)C2C(=C(C)CCC2(C)C)C23CCC(C)(C2)C(=O)CC13 (stereo not given) ?
stdout: false

stdin: Any idea what this test logged for CC(C)CCNc1ncccc1C(=O)N1CCN(Cc2ccccc2)CC1 ?
stdout: false

stdin: Any idea what this test logged for CNc1nc(NCc2ccc(NS(C)(=O)=O)cc2Cl)cc(-c2ccccn2)n1 ?
stdout: false

stdin: Any idea what this test logged for O=C(C(Cc1cccc(C(F)(F)F)c1)NS(=O)(=O)c1cc(F)c2c(c1)CCNC2)N1CCCC1 (stereo not given) ?
stdout: false

stdin: Any idea what this test logged for Cc1sc2c(c1C)C(c1ccc(Cl)cc1)=N[C@H](CC(=O)NCCCCNC(=O)COc1cccc3c1C(=O)N([C@H]1CCC(=O)NC1=O)C3=O)c1nnc(C)n1-2 ?
stdout: true

stdin: Any idea what this test logged for O=c1[nH]cnc2c([C@@H]3N[C@H](CO)[C@@H](O)[C@H]3O)c[nH]c12 ?
stdout: false

stdin: Any idea what this test logged for CC(=O)OC1CC(O)(C(C)C)C2C(OC(=O)c3ccc(O)cc3)C=C(C)C(=O)CC12C (stereo not given) ?
stdout: false

stdin: Any idea what this test logged for Cc1cc(-c2cnc(N)c3c(-c4ccc5scnc5c4)csc23)n(C)n1 ?
stdout: false

stdin: Any idea what this test logged for O=C(Nc1nc2cc(C(F)(F)F)cc(NC3CC3)n2n1)c1cccnc1 ?
stdout: true

stdin: Any idea what this test logged for C=C1C(=O)OC2CC3(C)C(O)C(=O)C=C(C)C3CC12 (stereo not given) ?
stdout: false

stdin: Any idea what this test logged for Clc1ccc(Cn2c(Cc3ccccc3)nc3ccccc32)cc1 ?
stdout: false

stdin: Any idea what this test logged for O=C(Nc1ccn(Cc2ccc(O)cc2C(F)(F)F)n1)c1c(F)cccc1F ?
stdout: false

stdin: Any idea what this test logged for COc1cc(N(C)CCN(C)C)c(N)cc1Nc1nccc(-c2cn(C)c3ccccc23)n1 ?
stdout: false

stdin: Any idea what this test logged for CCCCc1c(-c2ccc(OC)cc2)[nH]c2nccnc12 ?
stdout: false

stdin: Any idea what this test logged for CNCCC(c1cccs1)c1ccc(O)c2ccccc12 (stereo not given) ?
stdout: false

stdin: Any idea what this test logged for Cc1ccccc1CN1CCn2c1nc1c(c2=O)CN(Cc2ccccc2)CC1 ?
stdout: false

stdin: Any idea what this test logged for COC(=O)C1=CO[C@@H](O[C@@H]2O[C@H](CO)[C@@H](O)[C@H](O)[C@H]2O)[C@H]2[C@@H]1C=C[C@]21C=C([C@H](C)OC(=O)/C=C/c2ccc(O)cc2)C(=O)O1 ?
stdout: true

stdin: Any idea what this test logged for COc1ccc(CCCN2CCC(COC(c3ccccc3)c3ccccc3)CC2)cc1 ?
stdout: false
